// reported selectivity ratio for each item listed
measurement protocol: Selectivity index, ratio of TC50 for MDCK cells to IC50 for Influenza B virus jifang/13/97
Type: toxicity, cell-based
conditions: dog, read-out: Selectivity Index
Write the number on its own, no unit after it.

Reference set, count: 2
> print(dat)
                                smiles.data  measured.quantity  measurement
1  C=C(C(=O)OCc1cn(Cc2ccccc2Cl)nn1)[C@@H]1CC[C@H](C)[C@@H]2CC(=O)C(C)=C2C1  selectivity ratio         10.4
2  C=C(C(=O)NCc1cn(Cc2cccc(OC)c2)nn1)[C@@H]1CC[C@H](C)[C@@H]2CC(=O)C(C)=C2C1  selectivity ratio         3.45

The compound identified as "C=C(C(=O)NCc1cn(Cc2ccccc2)nn1)[C@@H]1CC[C@H](C)[C@@H]2CC(=O)C(C)=C2C1" registered its selectivity ratio at 12.2

###

Examples of molecules with documented selectivity ratio follow.
measurement protocol: Selectivity index, ratio of TC50 for MDCK cells to IC50 for Influenza A virus (A/FM/1/1947(H1N1))
Format: toxicity, cell-based
conditions: dog, read-out: Selectivity Index
Output: the number by itself.

Past entries and their recorded results:
> print(dat)
                                   molecule  measured.quantity  measurement
1  C=C(C(=O)NCc1cn(Cc2ccc(OC)cc2)nn1)[C@@H]1CC[C@H](C)[C@@H]2CC(=O)C(C)=C2C1  selectivity ratio         10.5
2  NC(=O)c1ncn([C@@H]2O[C@H](CO)[C@@H](O)[C@H]2O)n1 [RIBAVIRIN]  selectivity ratio          820

Below: the item to evaluate.
Value of selectivity ratio reported for the molecule C=C(C(=O)NCc1cn(C2C=CCCC2)nn1)[C@@H]1CC[C@H](C)[C@@H]2CC(=O)C(C)=C2C1 (some centres undefined) is 9.86

###

measurement protocol: Selectivity index, ratio of TC50 for MDCK cells to IC50 for Influenza A virus (A/Tianjinjinnan/15/2009/H1N1)
Format: toxicity, cell-based
conditions: dog, read-out: Selectivity Index
Listed compounds paired with reported selectivity ratio
Give the figure only, with no unit attached.

Observe how each entry below is paired with its result.
> print(dat)
                                smiles.data  measurement
1  C=C(C(=O)OCc1cn(C2CCCCC2)nn1)[C@@H]1CC[C@H](C)[C@@H]2CC(=O)C(C)=C2C1         1.98
2  C=C(C(=O)OCc1cn(Cc2ccccc2Cl)nn1)[C@@H]1CC[C@H](C)[C@@H]2CC(=O)C(C)=C2C1         1.98

Now consider a different compound.
Measured selectivity ratio, "C=C(C(=O)OCc1cn(Cc2cccc(C)c2)nn1)[C@@H]1CC[C@H](C)[C@@H]2CC(=O)C(C)=C2C1" : 1.98

###

System: Influenza A virus
measurement protocol: Antiviral activity against Influenza A virus (A/FM/1/1947(H1N1)) infected in MDCK cells assessed as inhibition of virus-induced cytopathicity after 40 hrs
Assay type: functional, organism-based
conditions: A/Fort Monmouth/1/1947(H1N1)
This listing pairs compounds with measured IC50.

> print(dat)
                                   compound  measurement
1  C=C(C(=O)OCc1cn(Cc2ccc(OC)cc2)nn1)[C@@H]1CC[C@H](C)[C@@H]2CC(=O)C(C)=C2C1    19.7 mg/L

IC50 recorded for this compound, "C=C(C(=O)NCc1cn(C2CCCCC2)nn1)[C@@H]1CC[C@H](C)[C@@H]2CC(=O)C(C)=C2C1" , is > 7.41 mg/L

# compound C=C(C(=O)NCc1cn(C2C=CCCC2)nn1)[C@@H]1CC[C@H](C)[C@@H]2CC(=O)C(C)=C2C1 (stereo partly specified) ; its IC50 = 9.75 mg/L

Form field IC50, entry "C=C(C(=O)OCc1cn(Cc2ccc(Cl)c(Cl)c2)nn1)[C@@H]1CC[C@H](C)[C@@H]2CC(=O)C(C)=C2C1" : > 7.41 mg/L

// field: IC50; key: "C=C(C(=O)OCc1cn(Cc2ccccc2)nn1)[C@@H]1CC[C@H](C)[C@@H]2CC(=O)C(C)=C2C1" ; value = > 7.41 mg/L

Memo: "C=C(C(=O)NCc1cn(Cc2cccc(Cl)c2)nn1)[C@@H]1CC[C@H](C)[C@@H]2CC(=O)C(C)=C2C1" , reported IC50: > 7.41 mg/L

###

measurement protocol: Selectivity index, ratio of TC50 for MDCK cells to IC50 for Influenza B virus jifang/13/97
Assay type: toxicity, cell-based
conditions: dog, read-out: Selectivity Index
measured quantity: selectivity ratio

Record "C=C(C(=O)OCc1cn(Cc2ccc(C)cc2)nn1)[C@@H]1CC[C@H](C)[C@@H]2CC(=O)C(C)=C2C1" , field selectivity ratio: ≥ 4.32

Lab book: selectivity ratio of "C=C(C(=O)OCc1cn(Cc2ccc(OC)cc2)nn1)[C@@H]1CC[C@H](C)[C@@H]2CC(=O)C(C)=C2C1" noted as ≥ 2.1

get_value(item= "C=C(C(=O)OCc1cn(Cc2cccc(C)c2)nn1)[C@@H]1CC[C@H](C)[C@@H]2CC(=O)C(C)=C2C1" , readout=selectivity ratio) returns ≥ 4

Reported selectivity ratio for C=C(C(=O)OCc1cn(C2C=CCCC2)nn1)[C@@H]1CC[C@H](C)[C@@H]2CC(=O)C(C)=C2C1 (some centres undefined) was ≥ 4.3
